meta.source: ChEMBL document CHEMBL1201862

- System: UACC-257
- assayMethodText: NCI tumour cell line growth inhibition, 48 h
The source made the active and inactive calls. Cut-off read from the data, not from the text of the source: active = GI50 up to about 1.1 µM and inactive = higher.
Thanks in advance; please answer with one of these: active, inactive

Short answer needed: outcome of this test for Clc1ccc(OCC2NC3CCC2CC3)cn1 (configuration not stated) ?
inactive

For Cc1cc(C#N)c(Nc2c(C)cccc2[N+](=O)[O-])s1 , what call appears in the results of this test?
inactive

Hi, do you know how [N-]=[N+]=NC1(N=[N+]=[N-])C(=O)NN=C(c2ccccc2)C1=O (configuration not stated) came out in this test?
inactive

Answer briefly: the call reported for COC(=O)c1cc2/c(=N/O)c3ccccc3sc2o1 in this assay.
inactive

Check the results log: what was the call for COC(=O)c1c2c(cc3c1CCC3)CCC2 ?
inactive

Just curious, what result did CCSCCCC(=O)O get here?
inactive

Could you check what this test reported for O=C(CNc1ccc(Cl)cc1Cl)NC1C=Cc2ccc(S(=O)(=O)Nc3ccc(Cl)cc3Cl)cc2C1=O (configuration not stated) ?
inactive

Dear all, I need the recorded test outcome for CCn1c2ccccc2c2ccc(C3C(C(=O)OC)=C(C)NC(C)=C3C(=O)OC)cc21 , thank you.
inactive

How was C=CCOC1CC(n2cnc3c(N)ncnc32)OC1CO (configuration not stated) classified in this test?
inactive

Given O=C(NCCCNCCN1C(=O)c2cccc3cc([N+](=O)[O-])cc(c23)C1=O)c1cc(-c2ccccc2)nc2ccccc12 , state the outcome it received in this test.
inactive

// outcome(item) with item = O=C(O[C@H]1[C@@H](O)[C@H](n2cnc3c(Cl)ncnc32)O[C@@H]1COC(c1ccccc1)(c1ccccc1)c1ccccc1)c1ccccc1
inactive

Per the records of this test, what outcome belongs to Cc1cccc2c(=O)c([Se]c3coc4c(C)cccc4c3=O)coc12 ?
inactive

Outcome logged for CCCCCCCCOC(CO)CO in this assay:
inactive

For COc1cc2c(cc1OC)C(=O)/C(=C/c1cc(C)c(O)c(C)c1)C2 , which call appears in the assay record?
active

Test call for this molecule, please: COc1cccc2cc(C(=O)NC34CC5CC(CC(C5)C3)C4)c(=N)oc12
inactive

Which outcome was assigned to COc1cc2cc3c4c(cc(OC)c(OC)c4c2cc1OC)CCN3C(=O)CCC(=O)O in this test?
inactive

Recorded call for O=c1[nH]c(Nc2ccc(Br)c(C(F)(F)F)c2)nc2[nH]cnc12 ?
inactive

Answer briefly: the call reported for Nc1cc(OCC2CCCCC2)nc(N)n1 in this assay.
inactive

Give the logged outcome of this assay for the following molecule: Cc1ccc(-n2c(N)c(C#N)c3[nH]nc(N)c3c2=O)cc1
inactive

Hey, what did the test say about COc1ccc2oc(C(=O)O)c3c2c1CCC3CCC(=O)O (configuration not stated) ?
inactive

// outcome(item) with item = Cc1cn(C2CC(/[N+]([O-])=N\Nc3ccc([N+](=O)[O-])cc3)C(CO)O2)c(=O)[nH]c1=O (configuration not stated)
inactive

// return assay outcome for O=C(O)COc1ccccc1C(=O)Nc1ccccc1
inactive

* * *

Please provide measured GI50 for the entries that follow.
- System: NCI-H23
- assayMethodText: NCI tumour cell line growth inhibition, 48 h
Activity calls are given as the source filed them. No stated cut-off is given here; in the data, active = GI50 up to about 1.1 µM and inactive = higher.

Returns the measured GI50 for the input compound. Input: CCOC1=CP(=O)(OCC)CC(C)=C1Cl (stereo unspecified)
> 100 µM (inactive)

Suppose we examine the compound Cc1ccc(F)cc1NC(=O)O/N=C(\Cl)C(C)C ; what GI50 value has been reported?
17.9 µM (inactive)

Returns the measured GI50 for the input compound. Input: CN1CCN(CCCN)CC1
> 100 µM (inactive)

Fill in: GI50 of COC(OC)C1(c2ccccc2)Oc2ccccc2C1=O (stereo unspecified) is ___
50.1 µM (inactive)

Request the reported GI50 associated with COc1cccc2cc(C(=O)NC34CC5CC(CC(C5)C3)C4)c(=N)oc12
> 100 µM (inactive)

Consider the compound shown here: CC(=O)C(=Cc1cn(C)c(=O)n(C)c1=O)C(C)=O What is its recorded GI50?
69.5 µM (inactive)

Name the recorded GI50 for O=C(CSc1c2ccccc2nc2ccccc12)Nc1ccccc1-c1ccccc1NC(=O)CSc1c2ccccc2nc2ccccc12 .
18.9 µM (inactive)

I am curious: what GI50 value has been reported for COC(=O)CNC(=O)Nc1cc(N2C(=O)ON3C2C(C)(C)N(O)C3(C)C)ccc1C (stereo unspecified) ?
> 100 µM (inactive)

I'd like to know its GI50. The compound in question is COC(=O)Nc1nc2cc(S(=O)(=O)n3nnc4ccccc43)ccc2[nH]1
41.7 µM (inactive)

# lookup: GI50 of COc1cc2c(cc1OS(C)(=O)=O)N=C[C@@H]1CCCN1C2=O
> 100 µM (inactive)

Can you look up the measured GI50 of COc1ccc(-c2c(C#N)c(S)n(NS(=O)(=O)c3ccccc3)c(=O)c2C#N)cc1 for me?
75.2 µM (inactive)

Recorded GI50 for O=C1NC(N2CCCCC2)=N/C1=C\c1ccccc1 , please?
> 100 µM (inactive)

Requested field: GI50. Item: CCOC(=O)NC(=O)c1cn(CCSCCOC(=O)NCCCCCCNC(=O)OCCSCCn2cc(C(=O)NC(=O)OCC)c(=O)n(C)c2=O)c(=O)n(C)c1=O
19.9 µM (inactive)

Need GI50 of CC(C)COP(C)(=O)C(N)(C(F)(F)F)C(F)(F)F (stereo unspecified) , thanks.
> 100 µM (inactive)

Item under review: C=CCOC1CC(n2cnc3c(N)ncnc32)OC1CO (stereo unspecified) . Reported GI50?
> 100 µM (inactive)

Name the reported GI50 value associated with the compound CCOC(=O)c1cnc(-n2[nH]c(C)c(CCO)c2=O)[nH]c1=O
> 100 µM (inactive)

Endpoint output: GI50 of Cc1cccc(C(C)C)c1NC(=O)CC1C(=O)Nc2ccccc2S1(=O)=O (stereo unspecified) . Value?
9.06 µM (inactive)

I would be grateful if you could share the reported GI50 for Cc1c(/C=N\NC(=S)NCCNC(=S)N/N=C\c2c(C)n(C)n(-c3ccccc3)c2=O)c(=O)n(-c2ccccc2)n1C .
> 100 µM (inactive)

# GI50 lookup, item COc1ccc(-c2c(N)n(-c3cccc(C(=O)O)c3)c(=O)c3cc([N+](=O)[O-])ccc23)cc1
> 100 µM (inactive)

Entry Cc1ccc(/C=C2/N/C(=N\N=C/c3ccccc3)NC2=O)cc1 : reported GI50 = ?
54.2 µM (inactive)

Reported GI50, compound O=C(O)c1ccc(C2=Nc3cccc4cccc(c34)N2)cc1 : ____
> 100 µM (inactive)
